molecular target: recombinant human LIF (Leukemia Inhibitory Factor) (human, UniProt P15018 23-202); assay: cell-based or functional assay
Sequence (P15018 23-202 limits assumed, form in doubt): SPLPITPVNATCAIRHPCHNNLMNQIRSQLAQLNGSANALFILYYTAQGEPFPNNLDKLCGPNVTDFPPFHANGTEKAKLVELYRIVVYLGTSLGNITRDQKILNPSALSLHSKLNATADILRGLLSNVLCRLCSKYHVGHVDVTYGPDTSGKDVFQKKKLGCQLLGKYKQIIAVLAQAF
Please go through the items and note down their pSTAT3 inhibition assay IC50 (nM).
Numbers only, in nM.

Known results for binders:
binder="NB0938 (antibody, V domains shown, Humanized variant of B7 by CDR grafting; also called Clone 938) VH: EVQLVESGGGLVQPGGSLRLSCAASGFSFSTDYWMSWVRQAPGKGLEWVSSIYVGTSGDTYYADSVKGRFTISRDNSKNTLYLQMDSLRAEDTAIYYCAGADNPYDYFNLWGQGTLVTVS VL: DIQMTQSPSSLSASVGDRVTITCRASETISGYLNWYQQKPGKAPKLLIYRASSLQSGVPSRFSGSGSGTDFTLTISSLQPEDFATYYCQQGYSYSDTDNVFGGGTKVEIK" units_of_measure=nM measured_result=11
binder="NB0919 (antibody, V domains shown, Humanized variant of B7 by CDR grafting; also called Clone 919) VH: QVQLQESGPGLVKPSDTLSLTCTVSGFSFSTDYWWSWIRQPPGKGLEWIGYIYVGTSGDTYYNPSLKSRVTISVDTSKNQFSLKLSSVTAADTAVYYCAGADNPYDYFNLWGQGTLVTVSS VL: DIQMTQSPSSLSASVGDRVTITCRASETISGYLNWYQQKPGKAPKLLIYRASSLQSGVPSRFSGSGSGTDFTLTISSLQPEDFATYYCQQGYSYSDTDNVFGGGTKVEIK" units_of_measure=nM measured_result=52.7
binder="NB0920 (antibody, V domains shown, Humanized variant of B7 by CDR grafting; also called Clone 920) VH: QVQLQESGPGLVKPSDTLSLTCTVSGFSFSTDYWWSWIRQPPGKGLEWIGYIYVGTSGDTYYNPSLKSRVTISVDTSKNQFSLKLSSVTAADTAVYYCAGADNPYDYFNLWGQGTLVTVSS VL: DIQMTQSPSSLSASVGDRVTITCRASETISGYLAWYQQKPGKVPKLLIYRASTLQSGVPSRFSGSGSGTDFTLTISSLQPEDVATYYCQQGYSYSDTDNVFGGGTKVEIK" units_of_measure=nM measured_result=38.7

Pending binder:
Fill in: pSTAT3 inhibition assay IC50 (nM) of NB0937 (antibody, V domains shown, Humanized variant of B7 by CDR grafting; also called Clone 937) VH: EVQLVESGGGLVQPGGSLRLSCAASGFSFSTDYWMSWVRQAPGKGLEWVSSIYVGTSGDTYYADSVKGRFTISRDNSKNTLYLQMDSLRAEDTAIYYCAGADNPYDYFNLWGQGTLVTVS VL: DIQMTQSPSSVSASVGDRVTITCRASETISGYLAWYQQKPGKAPKLLIYRASSLESGVPSRFSGSGSGTEFTLTISSLQPDDFATYYCQQGYSYSDTDNVFGGGTKVEIK is ___
7.22

All figures here come from patent US20230050773A1.
